# system.name: recombinant human FLAP protein (Homo sapiens (Human))
# Sequence (P20292 whole entry): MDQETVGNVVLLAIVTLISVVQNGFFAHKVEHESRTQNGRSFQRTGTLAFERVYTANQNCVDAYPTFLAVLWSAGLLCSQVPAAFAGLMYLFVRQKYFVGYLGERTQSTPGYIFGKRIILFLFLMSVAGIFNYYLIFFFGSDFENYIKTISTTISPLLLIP
# protocol.text: FLAP binding assay (Scintillation Proximity Assay, displacement of [125I]L-691,831)
# condition.info: read-out: FLAP SPA IC50
result.type: IC50
The answer consists of two parts: a number and, after it, its unit.

Solved entries:
compound="Nc1ncc(-c2ccc(C3(c4noc(-c5cnn(C6COC6)c5)n4)CCC3)cn2)cn1 [Example 55]" reported="13 nM"
compound="Nc1ncc(-c2ccc(C3(c4noc(-c5ccc(N6CC[C@H](O)C6)nc5)n4)CCC3)cn2)cn1 [Example 48]" reported="2.2 nM"
compound="Cc1cc(-c2nc(C3(c4ccc(-c5cnc(N)nc5)nc4)CCC3)no2)ccn1 [Example 101]" reported="24 nM"

Param readout= IC50; system= recombinant human FLAP protein (Homo sapiens (Human)); entry= COC(=O)[C@@H]1CCCN1c1ccc(-c2nc(C3(c4ccc(-c5cnc(N)nc5)nc4)CCC3)no2)cn1 [Example 36] ; returns value. 5.9 nM

----------
# Test system: synthesis of LTB4 in human whole blood
# protocol.text: Human whole blood LTB4 production inhibition assay
# Type: cell-based
# condition.info: calcimycin stimulated, read-out: hWB LTB4 IC50
# if measured IC50 < 600 nM: Fulfilled  # else: Not fulfilled

Worked cases, answers included:
mol_smiles=Cc1cc(-c2nc(C3(c4ccc(-c5cnc(N)nc5)cn4)CCOCC3)no2)n(C)n1 system_name="synthesis of LTB4 in human whole blood" class_label="Not fulfilled"
mol_smiles=N#Cc1cc(-c2ccc(C3(c4noc(-c5cnn(C6COC6)c5)n4)CCC3)cn2)cnc1N system_name="synthesis of LTB4 in human whole blood" class_label="Not fulfilled"
mol_smiles=CC(C)(O)c1ccc(-c2nc(C3(c4ccc(-c5cnc(N)nc5)nc4)CCC3)no2)cn1 system_name="synthesis of LTB4 in human whole blood" class_label=Fulfilled
mol_smiles=Nc1ncc(-c2ccc(C3(c4noc(-c5c[nH]cn5)n4)CCC3)cn2)cn1 system_name="synthesis of LTB4 in human whole blood" class_label=Fulfilled
mol_smiles=Nc1ncc(-c2ccc(C3(c4noc(-c5ccc[nH]c5=O)n4)CCC3)cn2)cn1 system_name="synthesis of LTB4 in human whole blood" class_label="Not fulfilled"
mol_smiles=CC(C)(C)OC(=O)N1CCN(c2ccc(-c3nc(C4(c5ccc(-c6cnc(N)nc6)nc5)CCC4)no3)cn2)CC1 system_name="synthesis of LTB4 in human whole blood" class_label=Fulfilled

Please determine if "CS(=O)(=O)c1ccc(-c2nc(C3(c4ccc(-c5cnc(N)nc5)nc4)CCC3)no2)cc1" is below 600 nM in terms of IC50. Not fulfilled

----------
# Test system: synthesis of LTB4 in human whole blood
# protocol.text: Human whole blood LTB4 production inhibition assay
# Assay type: cell-based
# condition.info: calcimycin stimulated, read-out: hWB LTB4 IC50
# if measured IC50 < 600 nM: TRUE  # else: FALSE

Worked cases, answers included:
compound=NC(=O)CNc1ccc(-c2nc(C3(c4ccc(-c5cnc(N)nc5)nc4)CCC3)no2)cn1 class_label=FALSE
compound="Nc1ncc(-c2ccc(C3(c4noc(-c5cnn(CC(=O)NCC6CCCO6)c5)n4)CCC3)cn2)cn1 (centres unmarked)" class_label=FALSE
compound=Nc1ncc(-c2ccc(C3(c4noc(-c5ccc(Cl)nc5)n4)CCC3)cn2)cn1 class_label=FALSE
compound=COCCNc1ccc(-c2nc(C3(c4ccc(-c5cnc(N)nc5)nc4)CCC3)no2)cn1 class_label=TRUE
compound=Cn1cnnc1-c1nc(C2(c3ccc(-c4cnc(N)nc4)nc3)CCC2)no1 class_label=FALSE
compound=Nc1ncc(-c2ccc(C3(c4noc(-c5ccc(N6CCN[C@@H](C(=O)O)C6)nc5)n4)CCC3)cn2)cn1 class_label=FALSE

Please determine if "CN(CCO)c1ccc(-c2nc(C3(c4ccc(-c5cnc(N)nc5)nc4)CCC3)no2)cn1" is below 600 nM in terms of IC50. TRUE

Please determine if CS(=O)(=O)C1CCN(c2ccc(-c3nc(C4(c5ccc(-c6cnc(N)nc6)nc5)CCC4)no3)cn2)C1 (centres unmarked) is below 600 nM in terms of IC50. TRUE

Cited source: patent US8575201B2
